pIC50 values by entry
assay: Cytotoxicity against human HCT116 cells; type: functional, cell-based; settings: HCT-116
Lab note: report pIC50 as minus log10 of the concentration in molar units, number only.

Worked cases, answers included:
>>> measured_result("COC(=O)CCCCCCCC(=O)N[C@]1(C)[C@@H]2CC[C@]3(C)[C@H](C(=O)C=C4[C@@H]5[C@@H](C)[C@H](C)CC[C@]5(C)CC[C@]43C)[C@@]2(C)CC[C@H]1OC(C)=O")
4.74
>>> measured_result("C[C@H]1[C@H](C)CC[C@]2(C)CC[C@]3(C)C(=CC(=O)[C@@H]4[C@@]5(C)CC[C@@H](O)[C@](C)(NC(=O)CCCC(=O)O)[C@@H]5CC[C@]43C)[C@H]12")
5.15

Okay, now this compound:
Value lookup for pIC50; key = `CC(=O)O[C@@H]1CC[C@]2(C)[C@H]3C(=O)C=C4[C@@H]5[C@@H](C)[C@H](C)CC[C@]5(C)CC[C@@]4(C)[C@]3(C)CC[C@H]2[C@@]1(C)N`
4.82

---

experiment: Cytotoxicity against human HCT116 cells; format: functional, cell-based; details: HCT-116
IC50 for assorted molecules

Some entries whose results are on file:
>>> measured_result("C[C@H]1[C@H](C)CC[C@]2(C)CC[C@]3(C)C(=CC(=O)[C@@H]4[C@@]5(C)CC[C@@H](O)[C@](C)(NC(=O)CCCCCCCC(=O)O)[C@@H]5CC[C@]43C)[C@H]12")
"> 20 µM"
>>> measured_result("C[C@H]1[C@H](C)CC[C@]2(C)CC[C@]3(C)C(=CC[C@@H]4[C@@]5(C)CC[C@@H](O)[C@](C)(NC(=O)CCCC(=O)O)[C@@H]5CC[C@]43C)[C@H]12")
"> 20 µM"

Consider now this further molecule.
Recorded IC50 of COC(=O)CCCC(=O)N[C@@]1(C)[C@H](OC(C)=O)CC[C@]2(C)C3CC=C4[C@@H]5[C@@H](C)[C@H](C)CC[C@]5(C)CC[C@@]4(C)[C@]3(C)CC[C@@H]12 (single isomer, unassigned) , please.
19 µM

---

molecular target: Histone deacetylase; assay: Inhibition of HDAC (unknown origin); assay type: protein assay, Homo sapiens
Collected IC50 values appear next to each entry.

Please review the entries below; each comes with its answer.
>>> measured_result("C[C@H]1[C@H](C)CC[C@]2(C)CC[C@]3(C)C(=CC(=O)[C@@H]4[C@@]5(C)CC[C@@H](O)[C@](C)(NC(=O)CCCCCCCC(=O)NO)[C@@H]5CC[C@]43C)[C@H]12")
"48 µM"
>>> measured_result("C[C@H]1[C@H](C)CC[C@]2(C)CC[C@]3(C)C(=CC(=O)[C@@H]4[C@@]5(C)CC[C@@H](O)[C@](C)(NC(=O)CCCC(=O)NO)[C@@H]5CC[C@]43C)[C@H]12")
"6 µM"
>>> measured_result("C[C@H]1[C@H](C)CC[C@]2(C)CC[C@]3(C)C(=CC(=O)[C@@H]4[C@@]5(C)CC[C@@H](O)[C@](C)(NC(=O)CCCCC(=O)NO)[C@@H]5CC[C@]43C)[C@H]12")
"42 µM"
>>> measured_result("C[C@H]1[C@H](C)CC[C@]2(C)CC[C@]3(C)C(=CC[C@@H]4[C@@]5(C)CC[C@@H](O)[C@](C)(NC(=O)CCCCCCC(=O)NO)[C@@H]5CC[C@]43C)[C@H]12")
"30 µM"

IC50 for `C[C@H]1[C@H](C)CC[C@]2(C)CC[C@]3(C)C(=CC[C@@H]4[C@@]5(C)CC[C@@H](O)[C@](C)(NC(=O)CCCC(=O)NO)[C@@H]5CC[C@]43C)[C@H]12` ?
34 µM

Check `C[C@H]1[C@H](C)CC[C@]2(C)CC[C@]3(C)C(=CC(=O)[C@@H]4[C@@]5(C)CC[C@@H](O)[C@](C)(NC(=O)CCCCCCC(=O)NO)[C@@H]5CC[C@]43C)[C@H]12` too.
> 50 µM

Now this one: `C[C@H]1[C@H](C)CC[C@]2(C)CC[C@]3(C)C(=CC[C@@H]4[C@@]5(C)CC[C@@H](O)[C@](C)(NC(=O)CCCCCCCC(=O)NO)[C@@H]5CC[C@]43C)[C@H]12`
> 50 µM
